Tested on: DeltatarO mutant
Assay: S. aureus survival, RN4220 and DeltatarO strains – OD600, teichoic acid synthesis inhibitors, primary screen (AID 463173)
Details: S. aureus RN4220 wild type/DeltatarO growth, OD600, 18 h, screened at 18.75 µg/mL (by protocol)
In all, about 52,000 compounds went through this assay and about 4,300 (8.3%) were called active. Cut-off read from the data, not from the text of the source: active = survival mostly below about 52% (no sharp cut-off); inactive = mostly above about 56%. The full list was thinned out, with actives kept by preference.
Your answer must be one of the following: label 1 for active, label 0 for inactive

Sample answers from the record:
[[record]]
molecule = "Cc1ccc(CN2C(=O)C3(SCC(=O)N3c3ccc(C)c(C)c3)c3ccccc32)cc1 (stereo unspecified)"
category = "label 0"

[[record]]
molecule = "Cc1ccc(NS(=O)(=O)c2ccc3c(c2)CC(=O)N3)cc1Cl"
category = "label 1"

[[record]]
molecule = "Cc1ccccc1NC(=O)CSc1nnc(-c2cccs2)o1"
category = "label 0"


Prompt line: Called result for `O=C(COc1ccccc1)Nc1nnc(S(=O)(=O)N2CCCCCC2)s1`
Response line: label 0

Prompt line: Now try `CC(=O)c1ccc(C(=O)N(Cc2cccnc2)c2nc3c(Cl)cccc3s2)cc1` .
Response line: label 0

Prompt line: Another molecule to check: COc1ccc(NC(=O)C2=C(C)Nc3nc(SCc4ccccc4C)nn3C2c2ccc(Br)cc2)cc1 (stereo unspecified)
Response line: label 0

Prompt line: Okay, and `Cc1nc(N2CCCC2)c2c(C(=O)N3CCN(c4cc(Cl)ccc4C)CC3)c(C)oc2n1` ?
Response line: label 0

Prompt line: Consider next the molecule `CCCCOC(=O)c1ccc(NC(=O)c2cc3c(=O)n4cccc(C)c4nc3s2)cc1` in the same way.
Response line: label 0

Prompt line: `COc1ccc(NS(=O)(=O)c2ccc3nc(-c4ccccc4)[nH]c3c2)cc1` ?
Response line: label 0

Prompt line: What do you get for `O=S(=O)(Nc1ccc(Br)cc1F)c1ccc2nc(-c3ccccc3)[nH]c2c1` ?
Response line: label 0

Prompt line: Repeat for the following molecule: `O=C(CSc1nc2c(oc3ccccc32)c(=O)n1Cc1ccco1)Nc1cccc(Cl)c1`
Response line: label 0
